The measurements presented in this section are drawn from PubChem BioAssay (NCI).

System: RXF-631 renal
Assay: NCI tumour cell line growth inhibition, 48 h
Assign TGI to each entry below.

>  <compound>
C1CC2=C(C1)C1=S(S2)SC2=C1CCC2

>  <measurement.target>
RXF-631 renal

>  <TGI>
> 100 µM

$$$$

Hi there! I need TGI for each item below, if you can.
1. CC(C)C(=S)N(C)O
2. C/C(CC(=O)Nc1ccc(NC(=O)C/C(C)=N\NC(N)=O)cc1)=N/NC(N)=O
3. COc1cc2c(c(OC)c1OC)-c1ccc(SC)c(=O)cc1C(CC(=O)Oc1cccc(F)c1)C2 (centres undefined)
4. CC(C)=C1CCC(CN2CCOCC2)C1=O (centres undefined)

Solution:
["> 100 µM", "> 100 µM", "20.7 µM", "> 31 µM"]

List the reported TGI of each compound below.
1. COC(=O)/C(=C/c1ccc(OC)cc1)C(C(=O)O)=C1CCCCC1
2. COC(=O)CC(C(C(C)=O)C(=O)OCc1ccccc1)N1C(=O)OC(c2ccccc2)C1c1ccccc1 (centres undefined)
3. CC1=C(C(=O)Nc2ccccc2)C(c2cc(Cl)cc(Cl)c2)C(C(=O)Nc2ccccc2)=C(C)N1
4. CN1CCCN2CCN(C)CCCN(CC1)CC2

Solution:
1: > 100 µM; 2: > 100 µM; 3: 63.5 µM; 4: > 100 µM
